- System: 922993-354-T-J3-PDC complex spheroids, viability, % test/control
- METHOD DESCRIPTION: Anticancer human tumor 922993-354-T-J3-PDC patient-derived endometrial carcinoma cell line growth inhibition [CLK]
- CONDITION SET: second compound 0.0316 µM; first compound 0.1 µM; stronger effect = lower value
The reader will find reported viability, T/C values listed item by item below.
Lab book: enter the figure in %, no units written.

[[record]]
molecule = "C#Cc1c(F)ccc2cc(O)cc(-c3ncc4c(N5CC6CCC(C5)N6)nc(OCC56CCCN5CC(F)C6)nc4c3F)c12 (stereo not given) + CNC(=O)c1ccc(Nc2nc(OC3CCCC3)c3c(-c4ccc5nc(C)oc5c4)c[nH]c3n2)c(OC)c1"
test_result = 98.5

[[record]]
molecule = "CC1COCCN1c1cc(C2(S(C)(=N)=O)CC2)nc(-c2ccnc3[nH]ccc23)n1 (stereo not given) + CNC(=O)c1ccc(Nc2nc(OC3CCCC3)c3c(-c4ccc5nc(C)oc5c4)c[nH]c3n2)c(OC)c1"
test_result = 108

[[record]]
molecule = "C=CC(=O)N1CCN(c2nc(=O)n(-c3c(C)ccnc3C(C)C)c3nc(-c4c(O)cccc4F)c(F)cc23)C(C)C1 (stereo not given) + CNC(=O)c1ccc(Nc2nc(OC3CCCC3)c3c(-c4ccc5nc(C)oc5c4)c[nH]c3n2)c(OC)c1"
test_result = 105

[[record]]
molecule = "CCCS(=O)(=O)Nc1ccc(F)c(C(=O)c2c[nH]c3ncc(-c4ccc(Cl)cc4)cc23)c1F + CNC(=O)c1ccc(Nc2nc(OC3CCCC3)c3c(-c4ccc5nc(C)oc5c4)c[nH]c3n2)c(OC)c1"
test_result = 93.9

[[record]]
molecule = "Cn1ncnc1[C@H]1c2n[nH]c(=O)c3cc(F)cc(c23)N[C@@H]1c1ccc(F)cc1 + CNC(=O)c1ccc(Nc2nc(OC3CCCC3)c3c(-c4ccc5nc(C)oc5c4)c[nH]c3n2)c(OC)c1"
test_result = 84.6


Input: Give 922993-354-T-J3-PDC complex spheroids, viability, % test/control viability, T/C for Nc1ccn(C2OC(CO)C(O)C2(F)F)c(=O)n1 (stereo not given) + CNC(=O)c1ccc(Nc2nc(OC3CCCC3)c3c(-c4ccc5nc(C)oc5c4)c[nH]c3n2)c(OC)c1
Output: 17.5

Input: Give 922993-354-T-J3-PDC complex spheroids, viability, % test/control viability, T/C for O=C(c1cc(Cc2n[nH]c(=O)c3ccccc23)ccc1F)N1CCN(C(=O)C2CC2)CC1 + CN1CCN(c2cc(C(=O)Nc3cc4cc(-c5cnn(C)c5)ccc4cn3)ccn2)CC1
Output: 106

Input: Give 922993-354-T-J3-PDC complex spheroids, viability, % test/control viability, T/C for CC1COCCN1c1cc(C2(S(C)(=N)=O)CC2)nc(-c2ccnc3[nH]ccc23)n1 (stereo not given) + CN1CCN(c2cc(C(=O)Nc3cc4cc(-c5cnn(C)c5)ccc4cn3)ccn2)CC1
Output: 119

Input: Give 922993-354-T-J3-PDC complex spheroids, viability, % test/control viability, T/C for CC(Nc1ccc2c(c1)OCCn1cc(N3C(=O)OCC3C(F)F)nc1-2)C(N)=O (stereo not given) + CNC(=O)c1ccc(Nc2nc(OC3CCCC3)c3c(-c4ccc5nc(C)oc5c4)c[nH]c3n2)c(OC)c1
Output: 106

Input: Give 922993-354-T-J3-PDC complex spheroids, viability, % test/control viability, T/C for CCCS(=O)(=O)Nc1ccc(F)c(C(=O)c2c[nH]c3ncc(-c4ccc(Cl)cc4)cc23)c1F + CN1CCN(c2cc(C(=O)Nc3cc4cc(-c5cnn(C)c5)ccc4cn3)ccn2)CC1
Output: 113

###

- Tested on: 922993-354-T-J3-PDC complex spheroids, viability, % test/control
- METHOD DESCRIPTION: Anticancer human tumor 922993-354-T-J3-PDC cell line growth inhibition [CLK];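 further: spheroids exposed to the agents for 7 days before readout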
- CONDITION SET: second compound 1 µM; first compound 10 µM; stronger effect = lower value
MEASUREMENT TYPE: viability, T/C (%)
Lab book: enter the figure in %, no units written.

[[record]]
molecule = "COc1ccc([C@@H](O)c2cc(-c3ncnc4cc(N5CCOCC5)ccc34)c(F)cc2Cl)nn1 + CN1CCN(c2cc(C(=O)Nc3cc4cc(-c5cnn(C)c5)ccc4cn3)ccn2)CC1"
test_result = 1.37

[[record]]
molecule = "CC1COCCN1c1cc(C2(S(C)(=N)=O)CC2)nc(-c2ccnc3[nH]ccc23)n1 (stereo not drawn) + CN1CCN(c2cc(C(=O)Nc3cc4cc(-c5cnn(C)c5)ccc4cn3)ccn2)CC1"
test_result = 0.08

[[record]]
molecule = "COc1ccc([C@@H](O)c2cc(-c3ncnc4cc(N5CCOCC5)ccc34)c(F)cc2Cl)nn1 + CNC(=O)c1ccc(Nc2nc(OC3CCCC3)c3c(-c4ccc5nc(C)oc5c4)c[nH]c3n2)c(OC)c1"
test_result = 56.8

[[record]]
molecule = "O=c1[nH]cc(F)c(=O)[nH]1 + CNC(=O)c1ccc(Nc2nc(OC3CCCC3)c3c(-c4ccc5nc(C)oc5c4)c[nH]c3n2)c(OC)c1"
test_result = 23.9

[[record]]
molecule = "C=C(F)C(=O)N1CCN(c2nc(OCC3CCCN3C)nc3c2CCN(c2cccc4cccc(Cl)c24)C3)CC1CC#N (stereo not drawn) + CNC(=O)c1ccc(Nc2nc(OC3CCCC3)c3c(-c4ccc5nc(C)oc5c4)c[nH]c3n2)c(OC)c1"
test_result = 0.95


Input: Which viability, T/C is reported for this molecule? COc1cccc2c1C(=O)c1c(O)c3c(c(O)c1C2=O)CC(O)(C(=O)CO)CC3OC1CC(N)C(O)C(C)O1 (stereo not drawn) + CN1CCN(c2cc(C(=O)Nc3cc4cc(-c5cnn(C)c5)ccc4cn3)ccn2)CC1
Output: 1.32

Input: Which viability, T/C is reported for this molecule? Nc1ccn(C2OC(CO)C(O)C2(F)F)c(=O)n1 (stereo not drawn) + CN1CCN(c2cc(C(=O)Nc3cc4cc(-c5cnn(C)c5)ccc4cn3)ccn2)CC1
Output: 0.07

###

- System: 922993-354-T-J3-PDC complex spheroids, viability, % test/control
- METHOD DESCRIPTION: Anticancer human tumor 922993-354-T-J3-PDC cell line growth inhibition [CLK];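 further: spheroids exposed to the agents for 7 days before readout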
- CONDITION SET: curve of first compound; second compound 0.316 µM
MEASUREMENT TYPE: pIC50
Just so you know, pIC50 here is -log10 of the concentration in molar units; reply with that number alone.

Examples from the recorded data:
[[record]]
compound = "C=CC(=O)N1CCN(c2nc(=O)n(-c3c(C)ccnc3C(C)C)c3nc(-c4c(O)cccc4F)c(F)cc23)C(C)C1 (stereo not given) + CN1CCN(c2cc(C(=O)Nc3cc4cc(-c5cnn(C)c5)ccc4cn3)ccn2)CC1"
measurement_type = "pIC50"
test_result = 7.36

[[record]]
compound = "NC(=O)C(=Cn1cnc(-c2cc(C(F)(F)F)cc(C(F)(F)F)c2)n1)c1cncnc1 + CNC(=O)c1ccc(Nc2nc(OC3CCCC3)c3c(-c4ccc5nc(C)oc5c4)c[nH]c3n2)c(OC)c1"
measurement_type = "pIC50"
test_result = 6.69


Input: Which pIC50 is reported for this compound? C#Cc1c(F)ccc2cc(O)cc(-c3ncc4c(N5CC6CCC(C5)N6)nc(OCC56CCCN5CC(F)C6)nc4c3F)c12 (stereo not given) + CN1CCN(c2cc(C(=O)Nc3cc4cc(-c5cnn(C)c5)ccc4cn3)ccn2)CC1
Output: 7.25

###

The reader will find reported viability, T/C values listed item by item below.
- Tested on: 922993-354-T-J3-PDC complex spheroids, viability, % test/control
- METHOD DESCRIPTION: Anticancer human tumor 922993-354-T-J3-PDC cell line growth inhibition [CLK];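 further: spheroids exposed to the agents for 7 days before readout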
- CONDITION SET: second compound 3.16 µM; first compound 10 µM; stronger effect = lower value
- Text: A high-throughput screen of multi-cell type tumor spheroids was designed to identify active combinations of […] and targeted small molecules. Complex spheroids include a stromal component modeled by human endothelial cells (HUVEC) and fibroblasts modeled by human mesenchymal stem cells (MSCs). […] Compounds. […] If the clinical Cmax for an agent had not been determined, the highest concentration tested was 10 microM. […]
Lab book: enter the figure in %, no units written.

Examples from the recorded data:
[[record]]
molecule = "COc1ccc([C@@H](O)c2cc(-c3ncnc4cc(N5CCOCC5)ccc34)c(F)cc2Cl)nn1 + CN1CCN(c2cc(C(=O)Nc3cc4cc(-c5cnn(C)c5)ccc4cn3)ccn2)CC1"
target_of_assay = "922993-354-T-J3-PDC complex spheroids, viability, % test/control"
value_units = "%"
test_result = 1.48

[[record]]
molecule = "CC(Nc1ccc2c(c1)OCCn1cc(N3C(=O)OCC3C(F)F)nc1-2)C(N)=O (stereo not given) + CN1CCN(c2cc(C(=O)Nc3cc4cc(-c5cnn(C)c5)ccc4cn3)ccn2)CC1"
target_of_assay = "922993-354-T-J3-PDC complex spheroids, viability, % test/control"
value_units = "%"
test_result = 1.61

[[record]]
molecule = "CC(CO)NC(=O)c1cc(-c2ccc(Cl)cc2)nn(-c2cnn(C)c2)c1=O (stereo not given) + CNC(=O)c1ccc(Nc2nc(OC3CCCC3)c3c(-c4ccc5nc(C)oc5c4)c[nH]c3n2)c(OC)c1"
target_of_assay = "922993-354-T-J3-PDC complex spheroids, viability, % test/control"
value_units = "%"
test_result = 36

[[record]]
molecule = "Nc1ccn(C2OC(CO)C(O)C2(F)F)c(=O)n1 (stereo not given) + CN1CCN(c2cc(C(=O)Nc3cc4cc(-c5cnn(C)c5)ccc4cn3)ccn2)CC1"
target_of_assay = "922993-354-T-J3-PDC complex spheroids, viability, % test/control"
value_units = "%"
test_result = 2.45

[[record]]
molecule = "CC1COCCN1c1cc(C2(S(C)(=N)=O)CC2)nc(-c2ccnc3[nH]ccc23)n1 (stereo not given) + CN1CCN(c2cc(C(=O)Nc3cc4cc(-c5cnn(C)c5)ccc4cn3)ccn2)CC1"
target_of_assay = "922993-354-T-J3-PDC complex spheroids, viability, % test/control"
value_units = "%"
test_result = 0.87


Input: Give 922993-354-T-J3-PDC complex spheroids, viability, % test/control viability, T/C for CC1(C)CCC(CN2CCN(c3ccc(C(=O)NS(=O)(=O)c4ccc(NCC5CCOCC5)c([N+](=O)[O-])c4)c(Oc4cnc5[nH]ccc5c4)c3)CC2)=C(c2ccc(Cl)cc2)C1 + CN1CCN(c2cc(C(=O)Nc3cc4cc(-c5cnn(C)c5)ccc4cn3)ccn2)CC1
Output: 1.27
